FYI, the data here is from patent US20250333515A1.

Items are presented alongside their recorded koff.
Target: biotinylated recombinant human CLL-1 extracellular domain protein, isoform with glutamine at amino acid position 244 (human) (UniProt Q5QGZ9)
Sequence (Q5QGZ9 65-265): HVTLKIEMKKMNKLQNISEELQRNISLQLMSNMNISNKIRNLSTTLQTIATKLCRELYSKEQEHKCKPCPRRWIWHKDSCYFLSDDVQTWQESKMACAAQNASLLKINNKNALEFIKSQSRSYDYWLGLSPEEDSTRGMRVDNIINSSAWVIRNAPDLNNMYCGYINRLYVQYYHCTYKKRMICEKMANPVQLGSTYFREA
Test: BLItz, 1:1 model (Q244 per FIG. 12B)
valueType: koff (s⁻¹)

>>> valuemeasured("Anti-CLL-1 Binder Clone 4 (scFv, not shown: small tags and cut ends) scFv: QSVVTQPPSVSAAPGQKVTISCSGSSPNIGKNYVSWYQQLPGTAPKLLIYDNNKRPSGIPDRFSGSKSGTSATLGITGLQTGDEADYYCGTWDSSLSGYVFGTGTKVTVLGGGGSGGGGSGGGGSQVQLVESGGGVVQPGRSLRLSCAASGFTFSSYGMHWVRQAPGKGLEWVAFISHDGSNKYYADSVKGRSTISRDNSKSTLFLQMNSLRDEDTAVYFCAREGQLTTSWDFFDYWGHGTLVTVSS")
0.00057
>>> valuemeasured("Anti-CLL-1 Binder Clone 20 (VHH, not shown: small tags and cut ends) VHH: QVQLVQSGGGLVQPGGSLRLSCAASDFSFSYYEMSWVRQAPGKGLEWVSTISGSGDSTYYADSVKGRFTISRDNTKNTLYLQMNTLRAEDTATYYCMTDGETWGTHRYTVYWGQGALVTVSS")
0.0035
